- test-details: Quantitative High-Throughput drug screen in 47 multiple myeloma cell lines against the NCATS MIPE library collection: FR4_PLB cell viability assay (AID 1918924; further: nearly all actives have a fitted effect of over 35% in size; further: potency means the concentration at half of the fitted maximal effect)
- condition-summary: FR4_PLB myeloma cells viability, CellTiter-Glo ATP, 48 h; series mostly up to 45.8 µM
Records with an inconclusive call do not appear. Activity calls are given as the source filed them. The call rests on the fitted dose curve; in most records, active means well fitted cell-killing curve with a large enough effect; inconclusive means small, poorly fitted or top-dose-only effect, or effect the other way; inactive means no such curve, though single readings can be large or run the other way.
measurement-kind: Potency

[
  {
    "molecule": "Cn1c(=O)c(-c2c(Cl)cccc2Cl)cc2cnc(Nc3cccc(C(=O)O)c3)nc21",
    "measurement-kind": "Potency",
    "data-value": "5.26 µM (active)"
  },
  {
    "molecule": "CC(C)(OCc1nn(Cc2ccccc2)c2ccccc12)C(=O)O",
    "measurement-kind": "Potency",
    "data-value": "inactive"
  },
  {
    "molecule": "CNC1CCC(N(Cc2cccc(-c3ccncc3)c2)C(=O)c2sc3ccccc3c2Cl)CC1 (stereo unspecified)",
    "measurement-kind": "Potency",
    "data-value": "20.9 µM (active)"
  },
  {
    "molecule": "O=C1Nc2ccc(I)cc2C1=Cc1cc(Br)c(O)c(Br)c1",
    "measurement-kind": "Potency",
    "data-value": "inactive"
  },
  {
    "molecule": "Nc1ncnc2c1c(-c1cccc(OCc3ccccc3)c1)cn2C1CC(CN2CCC2)C1 (stereo unspecified)",
    "measurement-kind": "Potency",
    "data-value": "16.6 µM (active)"
  },
  {
    "molecule": "Nc1ccn([C@@H]2O[C@H](CO)[C@@H](O)[C@H]2O)c(=O)n1",
    "measurement-kind": "Potency",
    "data-value": "inactive"
  },
  {
    "molecule": "CC(=O)O[C@]1(C(C)=O)CC[C@H]2[C@@H]3C=C(Cl)C4=CC(=O)[C@@H]5C[C@H]5[C@]4(C)[C@@H]3CC[C@@]21C",
    "measurement-kind": "Potency",
    "data-value": "inactive"
  },
  {
    "molecule": "O=C(O)CCC=CCC[C@@H]1[C@H](N2CCCCC2)[C@@H](O)C[C@@H]1OCc1ccc(-c2ccccc2)cc1",
    "measurement-kind": "Potency",
    "data-value": "inactive"
  },
  {
    "molecule": "COc1cc2nccc(Oc3ccc(NC(=O)Nc4ccc(F)cc4F)c(F)c3)c2cc1OC",
    "measurement-kind": "Potency",
    "data-value": "inactive"
  },
  {
    "molecule": "Cc1ccc(C2=Nc3ccc(Cl)cc3OC2)cc1",
    "measurement-kind": "Potency",
    "data-value": "4.69 µM (active)"
  },
  {
    "molecule": "COc1cccc(OC)c1-c1cc(C(=O)NC2(C(=O)O)C3CC4CC(C3)CC2C4)nn1-c1ccnc2cc(Cl)ccc12 (stereo unspecified)",
    "measurement-kind": "Potency",
    "data-value": "inactive"
  },
  {
    "molecule": "Cn1c(=O)c(Oc2ccc(F)cc2F)cc2cnc(NC3CCOCC3)nc21",
    "measurement-kind": "Potency",
    "data-value": "inactive"
  },
  {
    "molecule": "CNC(=O)c1cc(COc2nnc(Nc3ccc(Cl)cc3)c3ccoc23)ccn1",
    "measurement-kind": "Potency",
    "data-value": "26.4 µM (active)"
  },
  {
    "molecule": "Cc1cnc(Nc2cccc(CN3CCOCC3)c2)nc1Nc1cccc(S(=O)(=O)NC(C)(C)C)c1",
    "measurement-kind": "Potency",
    "data-value": "14.8 µM (active)"
  },
  {
    "molecule": "CNC1[C@H](O)C(O[C@@H]2C(O)C(O[C@H]3O[C@H]([C@@H](C)NC)CC[C@H]3N)[C@@H](N)C[C@H]2N)OC[C@]1(C)O (stereo partly specified)",
    "measurement-kind": "Potency",
    "data-value": "inactive"
  },
  {
    "molecule": "CCN1CCN(c2ccc(Nc3cc(N(C)C(=O)Nc4c(Cl)c(OC)cc(OC)c4Cl)ncn3)cc2)CC1",
    "measurement-kind": "Potency",
    "data-value": "18.7 µM (active)"
  }
]

###

- test-details: qHTS Screen of the MIPE 4.0 Collection Against Ewings Sarcoma (TC32) (AID 1259256); further: nearly all actives have a fitted effect of over 45% in size
- condition-summary: TC32 Ewing sarcoma viability, CellTiter-Glo, 48 h; series mostly up to 45.8 µM
Results filed as inconclusive are left out. Calls of active or inactive are those of the source. Calls follow the shape of the dose curve; as a rule, active = well fitted inhibition curve with a large enough effect; inconclusive = small, poorly fitted or top-dose-only effect; inactive = no such curve, though single readings can be large or run the other way.
Outcomes: y = active, n = inactive

[
  {
    "compound": "CN(C)S(=O)(=O)c1ccc2c(c1)C(=Cc1cc3c([nH]1)CCCC3)C(=O)N2",
    "assigned-category": "y"
  },
  {
    "compound": "O=C(Nc1cccc(Cl)c1)Nc1ncc(CCNc2ncnc3ccsc23)s1",
    "assigned-category": "y"
  },
  {
    "compound": "CC1(C)CC(=O)c2c(C(F)(F)F)nn(-c3ccc(C(N)=O)c(NC4CCC(O)CC4)c3)c2C1 (stereo unspecified)",
    "assigned-category": "y"
  },
  {
    "compound": "COc1ccc(C=CC(=O)Nc2ccccc2C(=O)O)cc1OC",
    "assigned-category": "n"
  },
  {
    "compound": "CC(=O)N1CCN(c2ccc(OCc3nn(C)c(C)c3-c3cccc4c(CCCOc5cc(C)c(Cl)c(C)c5)c(C(=O)O)n(Cc5cccnc5)c34)cc2)CC1",
    "assigned-category": "y"
  },
  {
    "compound": "CO[C@H]1/C=C\\O[C@@]2(C)Oc3c(C)c(O)c4c(O)c(c(C=NN5CCN(C6CCCC6)CC5)c(O)c4c3C2=O)NC(=O)C(C)=CC=C[C@H](C)[C@H](O)[C@@H](C)[C@@H](O)[C@@H](C)[C@H](OC(C)=O)[C@H]1C",
    "assigned-category": "n"
  },
  {
    "compound": "CC1(COc2ccc3c(c2)ncn3-c2ccc3cccc(N4CCC(N)CC4)c3n2)COC1",
    "assigned-category": "n"
  },
  {
    "compound": "CCN(CC)CCCCNc1nc2cc(Cl)c(Cl)cc2nc1-c1ccc(-c2cccs2)s1",
    "assigned-category": "y"
  },
  {
    "compound": "Cc1ccc(C(=O)N(CCCN)[C@@H](c2oc3cc(Cl)ccc3c(=O)c2Cc2ccccc2)C(C)C)cc1",
    "assigned-category": "n"
  },
  {
    "compound": "Clc1ccc(COC(Cn2ccnc2)c2ccc(Cl)cc2Cl)c(Cl)c1 (stereo unspecified)",
    "assigned-category": "y"
  },
  {
    "compound": "COc1cc([C@@H]2c3cc4c(cc3[C@@H](O[C@@H]3O[C@@H]5CO[C@@H](C)O[C@@H]5[C@H](O)[C@@H]3O)[C@H]3COC(=O)[C@H]23)OCO4)cc(OC)c1O",
    "assigned-category": "n"
  }
]

###

- test-details: Quantitative High-Throughput drug screen in 47 multiple myeloma cell lines against the NCATS MIPE library collection: ARD_JJKsccE7 cell viability assay (AID 1918929)
- condition-summary: ARD myeloma cell line viability, CellTiter-Glo, 48 h; series mostly up to 45.8 µM
Inconclusive results are not listed. Calls of active or inactive are those of the source. The call rests on the fitted dose curve; in most records, active means well fitted cell-killing curve with a large enough effect; inconclusive means small, poorly fitted or top-dose-only effect, or effect the other way; inactive means no such curve, though single readings can be large or run the other way.
Outcomes: active, inactive

[
  {
    "compound": "Clc1ccc(COC(Cn2ccnc2)c2ccc(Cl)cc2Cl)c(Cl)c1 (stereo unspecified)",
    "assigned-category": "active"
  },
  {
    "compound": "O=C1CN2Cc3c(ccc(Cl)c3Cl)N=C2N1",
    "assigned-category": "inactive"
  },
  {
    "compound": "Cc1nc(NC(=O)N2CCC[C@@H]2C(N)=O)sc1-c1csc(C(C)(C)C)n1",
    "assigned-category": "active"
  },
  {
    "compound": "Nc1ncnc2c1ncn2[C@@H]1O[C@H](CO)[C@@H](O)[C@@H]1O",
    "assigned-category": "active"
  },
  {
    "compound": "CC(C)CNc1ccnc(NCc2csc(-c3ccccc3)n2)n1",
    "assigned-category": "active"
  },
  {
    "compound": "CCN(CCO)CCCOc1ccc2c(Nc3cc(CC(=O)Nc4cccc(F)c4)[nH]n3)ncnc2c1",
    "assigned-category": "inactive"
  }
]

###

- test-details: Quantitative High-Throughput drug screen in 47 multiple myeloma cell lines against the NCATS MIPE library collection: OPM1_PLB cell viability assay (AID 1918989); further: nearly all actives have a fitted effect of over 40% in size
- condition-summary: CellTiter-Glo, 48 h; series mostly up to 45.8 µM
Records with an inconclusive call do not appear. The source made the active and inactive calls. The call rests on the fitted dose curve; in most records, active means well fitted cell-killing curve with a large enough effect; inconclusive means small, poorly fitted or top-dose-only effect, or effect the other way; inactive means no such curve, though single readings can be large or run the other way.
Outcomes: active, inactive

[
  {
    "smiles-string": "CN[C@@H]1CN(c2ccc3c(=O)c(C(=O)O)cn(-c4nccs4)c3n2)C[C@@H]1OC",
    "assigned-category": "active"
  },
  {
    "smiles-string": "C[C@@H](O)[C@H]1C(=O)N2C(C(=O)OCOC(=O)C(C)(C)C)=C(SC3CN(C4=NCCS4)C3)[C@H](C)[C@H]12",
    "assigned-category": "inactive"
  },
  {
    "smiles-string": "O=C(Nc1cccc2c(=O)cc(-c3nn[nH]n3)oc12)c1ccc(OCCCCc2ccccc2)cc1",
    "assigned-category": "active"
  }
]
